System: 349418-098-R-PDC complex spheroid growth
measurement.notes: Anticancer human tumor 349418-098-R-PDC patient-derived lung adenocarcinoma cell line growth inhibition [AhR]; active = viability on the fitted dose curve at most 10% of control; inactive = the rest
condition.summary: second compound 1 µM; first compound 0.03 µM
Field 'call' accepts Y for active, N for inactive

Field: example entries. Status: answers known.
- compound: "CC(C)CC(NC(=O)C(Cc1ccccc1)NC(=O)c1cnccn1)B(O)O (stereo not drawn) + Cc1cncc(-c2nc(NCCc3c[nH]c4ccccc34)c3ncn(C(C)C)c3n2)c1"
  answer.label: "Y"
- compound: "O=C(C=Cn1cnc(-c2cc(C(F)(F)F)cc(C(F)(F)F)c2)n1)NNc1cnccn1 + CC(CO)NC(=O)c1cc(-c2ccc(Cl)cc2)nn(-c2cnn(C)c2)c1=O"
  answer.label: "N"

In the following, a different compound is considered.
Query: # lookup: test call for CCc1c2c(nc3ccc(O)cc13)-c1cc3c(c(=O)n1C2)COC(=O)[C@]3(O)CC + Cc1ccccc1N=Nc1ccc(NC(=O)c2ccnn2C)c(C)c1
Result: N

###

Test system: 349418-098-R-PDC complex spheroid growth
measurement.notes: Anticancer human tumor 349418-098-R-PDC cell line growth inhibition [AhR]; active = viability on the fitted dose curve at most 10% of control; inactive = the rest;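 note: spheroids also contain HUVEC endothelial cells and human MSC stroma; spheroids exposed to agents for seven days before luminescence viability read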
condition.summary: second compound 10 µM; first compound 0.3 µM
Field 'call' accepts yes = active, no = inactive

Field: example entries. Status: answers known.
- compound: "CCN(c1cc(-c2ccc(CN3CCOCC3)cc2)cc(C(=O)NCc2c(C)cc(C)[nH]c2=O)c1C)C1CCOCC1 + Cc1ccccc1N=Nc1ccc(NC(=O)c2ccnn2C)c(C)c1"
  answer.label: "no"
- compound: "Nc1ncn(C2CC(O)C(CO)S2)c(=O)n1 (stereo not drawn) + Cc1cncc(-c2nc(NCCc3c[nH]c4ccccc34)c3ncn(C(C)C)c3n2)c1"
  answer.label: "yes"

In the following, a different compound is considered.
Query: # lookup: test call for CCc1c2c(nc3ccc(O)cc13)-c1cc3c(c(=O)n1C2)COC(=O)[C@]3(O)CC + Cc1cncc(-c2nc(NCCc3c[nH]c4ccccc34)c3ncn(C(C)C)c3n2)c1
Result: yes

###

Tested on: 349418-098-R-PDC complex spheroid growth
measurement.notes: Anticancer human tumor 349418-098-R-PDC cell line growth inhibition [AhR];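 note: spheroids also contain HUVEC endothelial cells and human MSC stroma; spheroids exposed to agents for seven days before luminescence viability read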
condition.summary: second compound 1 µM; first compound 0.0316 µM; active compounds read low
The threshold is 90%. Values of viability, T/C beneath it are tagged met; values meeting or exceeding it are tagged not met.

Field: example entries. Status: answers known.
- compound: "O=C(c1cc(Cc2n[nH]c(=O)c3ccccc23)ccc1F)N1CCN(C(=O)C2CC2)CC1 + CC(CO)NC(=O)c1cc(-c2ccc(Cl)cc2)nn(-c2cnn(C)c2)c1=O"
  answer.label: "not met"
- compound: "O=C(c1cc(Cc2n[nH]c(=O)c3ccccc23)ccc1F)N1CCN(C(=O)C2CC2)CC1 + Cc1ccccc1N=Nc1ccc(NC(=O)c2ccnn2C)c(C)c1"
  answer.label: "not met"
- compound: "COc1cc(Nc2ncc3c(n2)-c2ccc(Cl)cc2C(c2c(F)cccc2OC)=NC3)ccc1C(=O)O + Cc1cncc(-c2nc(NCCc3c[nH]c4ccccc34)c3ncn(C(C)C)c3n2)c1"
  answer.label: "met"

Query: API: query returns whether the compound falls strictly under 90% in viability, T/C. Query: Nc1ccn(C2OC(CO)C(O)C2(F)F)c(=O)n1 (centres undefined) + Cc1ccccc1N=Nc1ccc(NC(=O)c2ccnn2C)c(C)c1
Result: met

Query: Repeat with COc1cc(Nc2ncc3c(n2)-c2ccc(Cl)cc2C(c2c(F)cccc2OC)=NC3)ccc1C(=O)O + CC(CO)NC(=O)c1cc(-c2ccc(Cl)cc2)nn(-c2cnn(C)c2)c1=O
Result: met

Query: Repeat with NS(=O)(=O)OCC1CC(n2ccc3c(NC4CCc5ccccc54)ncnc32)CC1O (centres undefined) + Cc1cncc(-c2nc(NCCc3c[nH]c4ccccc34)c3ncn(C(C)C)c3n2)c1
Result: met

Query: Repeat with CC1COCCN1c1cc(-c2ccnn2C)c2ccnc(-c3ccn[nH]3)c2n1 (centres undefined) + Cc1ccccc1N=Nc1ccc(NC(=O)c2ccnn2C)c(C)c1
Result: met

Query: Repeat with Cn1ncnc1C1c2n[nH]c(=O)c3cc(F)cc(c23)NC1c1ccc(F)cc1 (centres undefined) + Cc1cncc(-c2nc(NCCc3c[nH]c4ccccc34)c3ncn(C(C)C)c3n2)c1
Result: met

Query: Repeat with CC1(C)CCC(CN2CCN(c3ccc(C(=O)NS(=O)(=O)c4ccc(NCC5CCOCC5)c([N+](=O)[O-])c4)c(Oc4cnc5[nH]ccc5c4)c3)CC2)=C(c2ccc(Cl)cc2)C1 + Cc1ccccc1N=Nc1ccc(NC(=O)c2ccnn2C)c(C)c1
Result: not met
